Would you kindly list PBM binding z-score for each of these sequences?
system: PPARg homodimer (NR concentration 180 nM); assay: PBM binding z-score (relative to random genomic background probes); higher = stronger binding; sequences stand for … in GC…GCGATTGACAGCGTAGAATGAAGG
Answers are plain numbers.

Here's what some known entries look like.
>>> print(df.to_string())
                     sequence_content  data_value
0  CCTACTGGGCCATTCAGAAGTCATTGATCATATG      0.0197
1  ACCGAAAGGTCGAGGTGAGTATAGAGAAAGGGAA        1.13
2  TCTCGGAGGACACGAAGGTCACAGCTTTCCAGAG        2.75
3  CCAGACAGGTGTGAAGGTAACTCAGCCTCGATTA       0.376

Go through the items and report each one's PBM binding z-score.
1. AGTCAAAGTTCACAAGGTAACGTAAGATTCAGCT
2. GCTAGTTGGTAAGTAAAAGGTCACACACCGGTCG
3. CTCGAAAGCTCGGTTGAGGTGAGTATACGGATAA
4. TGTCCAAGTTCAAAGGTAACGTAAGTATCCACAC
5. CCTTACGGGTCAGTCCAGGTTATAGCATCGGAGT

*A*
[3.05, 5.08, -0.84, 1.85, 1.36]

====

system: THRa homodimer (NR concentration 90 nM); assay: PBM binding z-score (relative to random genomic background probes); higher = stronger binding; sequences stand for … in GC…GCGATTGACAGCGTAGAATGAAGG
endpoint: PBM binding z-score
Numbers only.

Some solved entries appear below for comparison.
                     sequence_content                              measured_on             endpoint  data_value
0  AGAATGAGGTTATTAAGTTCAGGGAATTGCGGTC  THRa homodimer (NR concentration 90 nM)  PBM binding z-score        1.36
1  TCTAGTTGGACACGGAGGTCACACACGACGGGTA  THRa homodimer (NR concentration 90 nM)  PBM binding z-score        2.32
2  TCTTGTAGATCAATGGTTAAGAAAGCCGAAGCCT  THRa homodimer (NR concentration 90 nM)  PBM binding z-score      -0.412
3  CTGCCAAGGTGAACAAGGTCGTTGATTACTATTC  THRa homodimer (NR concentration 90 nM)  PBM binding z-score        1.67
4  ATCTTTAGGTAAAGATAGTTCAGTGAATGCAAAT  THRa homodimer (NR concentration 90 nM)  PBM binding z-score       0.203

List PBM binding z-score for every entry below, keeping the order given.
1. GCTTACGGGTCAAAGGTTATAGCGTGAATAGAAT
2. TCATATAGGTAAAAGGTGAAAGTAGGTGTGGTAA

*A*
[0.134, 0.852]

====

Give PBM binding z-score for every item shown.
tested on: RARb homodimer (NR concentration 270 nM); assay: PBM binding z-score (relative to random genomic background probes); higher = stronger binding; sequences stand for … in GC…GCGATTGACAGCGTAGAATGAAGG

Some sequences with known PBM binding z-score results, for comparison:
                     sequence_content  data_value
0  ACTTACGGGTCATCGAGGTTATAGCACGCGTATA        3.64
1  ACTAGTTGGTCAGCTGACGTCACACACAATTCGG       0.958

*Q* // PBM binding z-score lookup, key: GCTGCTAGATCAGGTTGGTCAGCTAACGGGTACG
*A* -0.151

====

system: LXRa:RXRa (NR concentration 270 nM, RXRa partner concentration 90 nM); assay: PBM binding z-score (relative to random genomic background probes); higher = stronger binding; sequences stand for … in GC…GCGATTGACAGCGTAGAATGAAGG
endpoint: PBM binding z-score
One number for each entry.

Below, each entry is followed by its recorded PBM binding z-score result.
                     sequence_content             endpoint  data_value
0  ATATGTAGGTTACATCCAGGTCATTCAGGCTATG  PBM binding z-score        4.56
1  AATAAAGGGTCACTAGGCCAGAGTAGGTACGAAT  PBM binding z-score        5.35
2  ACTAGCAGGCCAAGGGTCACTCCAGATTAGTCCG  PBM binding z-score        2.79
3  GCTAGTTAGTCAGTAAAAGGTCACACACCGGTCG  PBM binding z-score        4.12
4  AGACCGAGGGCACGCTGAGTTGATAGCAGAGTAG  PBM binding z-score        0.67

Parameter requested: PBM binding z-score. Apply to each item below.
1. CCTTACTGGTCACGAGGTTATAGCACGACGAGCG
2. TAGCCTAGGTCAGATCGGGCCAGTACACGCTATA

*A*
1.46
1.36

====

tested on: PPARg:RXRa IVT, anti-PPARg (NR concentration 270 nM, RXRa partner concentration 90 nM); experiment: PBM binding z-score (relative to random genomic background probes); higher = stronger binding; sequences stand for … in GC…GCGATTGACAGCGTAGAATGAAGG
For each entry below, report its PBM binding z-score value.

>>> print(df.to_string())
                     sequence_content                               measured_on  data_value
0  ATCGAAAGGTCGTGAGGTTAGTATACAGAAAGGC  PPARg:RXRa IVT, anti-PPARg (NR concentration 270 nM, RXRa partner concentration 90 nM)        2.21
1  CCTAGTTGATCAAGGTCACACACGCTATAGGTAC  PPARg:RXRa IVT, anti-PPARg (NR concentration 270 nM, RXRa partner concentration 90 nM)        3.44
2  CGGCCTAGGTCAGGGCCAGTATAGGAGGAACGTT  PPARg:RXRa IVT, anti-PPARg (NR concentration 270 nM, RXRa partner concentration 90 nM)        1.22

Need PBM binding z-score for each of these sequences.
1. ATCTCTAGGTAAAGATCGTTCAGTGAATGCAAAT
2. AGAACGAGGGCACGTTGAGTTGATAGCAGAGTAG
3. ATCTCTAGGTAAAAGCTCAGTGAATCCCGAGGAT

*A*
[1.66, 3.75, 1.66]

====

system: PXR:RXRa (NR concentration 270 nM, RXRa partner concentration 90 nM); assay: PBM binding z-score (relative to random genomic background probes); higher = stronger binding; sequences stand for … in GC…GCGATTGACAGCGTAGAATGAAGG
Note to self: class labels come from recorded PBM binding z-score, ranges listed here: low = under 0.8, middle = from 0.8 up to 3, high = 3 and over

Solved cases below.
In [3]: df
Out[3]:
                     sequence_content  group_label
0  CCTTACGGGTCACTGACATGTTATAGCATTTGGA         high
1  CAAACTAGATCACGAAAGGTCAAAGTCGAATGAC         high
2  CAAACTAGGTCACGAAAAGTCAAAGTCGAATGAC       middle
3  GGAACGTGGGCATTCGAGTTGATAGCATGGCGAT          low
4  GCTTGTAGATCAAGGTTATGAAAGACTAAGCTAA          low
5  GGAACGAGGGCATTCGAGGTGATAGCATGGCGAT       middle

*Q* Form field 'band' for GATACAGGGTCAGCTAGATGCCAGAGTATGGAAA
*A* middle

*Q* Okay, and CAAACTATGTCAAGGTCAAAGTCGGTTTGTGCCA ?
*A* high

*Q* Further, for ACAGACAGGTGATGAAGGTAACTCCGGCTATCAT ?
*A* low

*Q* Continue with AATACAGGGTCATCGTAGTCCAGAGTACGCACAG
*A* high

*Q* Please answer likewise for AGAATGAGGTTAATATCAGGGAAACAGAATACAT
*A* middle

====

system: VDR homodimer (NR concentration 270 nM); test: PBM binding z-score (relative to random genomic background probes); higher = stronger binding; sequences stand for … in GC…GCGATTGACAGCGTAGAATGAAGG
Hi there, I'd appreciate the recorded PBM binding z-score for every entry that follows.
Numbers only.

Field: example entries. Status: answers known.
>>> df
                     sequence_content  data_value
0  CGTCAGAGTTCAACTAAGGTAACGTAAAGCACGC        4.58
1  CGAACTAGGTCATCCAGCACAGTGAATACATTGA        1.16
2  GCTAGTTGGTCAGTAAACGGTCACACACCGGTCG      -0.361
3  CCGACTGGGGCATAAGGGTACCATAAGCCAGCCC      -0.543
4  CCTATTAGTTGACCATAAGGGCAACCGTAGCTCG       0.902
5  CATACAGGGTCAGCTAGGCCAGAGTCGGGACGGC        1.31
6  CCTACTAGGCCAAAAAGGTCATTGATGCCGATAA        2.99
7  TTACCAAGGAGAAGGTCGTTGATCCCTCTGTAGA       0.372
8  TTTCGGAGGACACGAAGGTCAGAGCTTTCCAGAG        1.86
9  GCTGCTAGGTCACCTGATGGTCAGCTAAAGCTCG     -0.0693

// below: PBM binding z-score requested for another sequence
*Q* Look up PBM binding z-score with VDR homodimer (NR concentration 270 nM) for this sequence: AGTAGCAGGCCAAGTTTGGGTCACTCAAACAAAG
*A* 0.19
